Reported Ki against D(4) dopamine receptor (Homo sapiens), gathered from multiple publications, appears below.
Sequence (P21917 whole entry): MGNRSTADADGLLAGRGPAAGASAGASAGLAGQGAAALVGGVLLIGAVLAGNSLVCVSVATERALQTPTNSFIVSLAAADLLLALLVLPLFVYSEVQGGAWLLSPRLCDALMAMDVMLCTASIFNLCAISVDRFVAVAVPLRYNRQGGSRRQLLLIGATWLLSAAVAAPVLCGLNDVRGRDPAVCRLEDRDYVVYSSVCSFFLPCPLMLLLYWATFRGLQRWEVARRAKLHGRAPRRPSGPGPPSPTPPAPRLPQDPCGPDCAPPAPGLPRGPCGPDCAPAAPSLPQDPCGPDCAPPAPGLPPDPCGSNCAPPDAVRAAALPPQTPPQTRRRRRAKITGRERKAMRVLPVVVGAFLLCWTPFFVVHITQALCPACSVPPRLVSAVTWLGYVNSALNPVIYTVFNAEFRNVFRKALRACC
Reply numerically in nM, unit not repeated.

Record lookup: for D(4) dopamine receptor (Homo sapiens), what Ki belongs to c1ccc(CNCCOc2cccc3nc[nH]c23)cc1 ?
51.6

Record lookup: for D(4) dopamine receptor (Homo sapiens), what Ki belongs to c1ccc(N2CCN(Cc3nc4ccccc4[nH]3)CC2)cc1 ?
52

Record lookup: for D(4) dopamine receptor (Homo sapiens), what Ki belongs to Cc1cc(NC(=O)CN2CCC(OCc3ccc(F)c(F)c3)CC2)ccc1F ?
121

Record lookup: for D(4) dopamine receptor (Homo sapiens), what Ki belongs to CN1CCc2cc(Cl)c(O)cc2[C@H]2c3cccc(/C=N/O)c3CC[C@@H]21 ?
4370

Record lookup: for D(4) dopamine receptor (Homo sapiens), what Ki belongs to Cc1cccc(C(=O)NCN2CCN(c3ccccc3Cl)CC2)c1 ?
15.8

Record lookup: for D(4) dopamine receptor (Homo sapiens), what Ki belongs to CCCc1c(C(=O)NCCCCN2CCN(c3ccccc3OC)CC2)nnn1Cc1ccc(OC)cc1 ?
129

Record lookup: for D(4) dopamine receptor (Homo sapiens), what Ki belongs to c1ccc(C[n+]2cc[n+](-c3cccc4[nH]ccc34)cc2)cc1 ?
14.7

Record lookup: for D(4) dopamine receptor (Homo sapiens), what Ki belongs to CN1CCCc2c([nH]c3ccccc23)Cc2ccccc2CC1 ?
184

Record lookup: for D(4) dopamine receptor (Homo sapiens), what Ki belongs to O=c1oc2cc(O)ccc2c2c1CN(Cc1ccc(Cl)cc1)CC2 ?
2.4

Record lookup: for D(4) dopamine receptor (Homo sapiens), what Ki belongs to Cc1c(-c2ccccc2)cnn1C1CCN(Cc2ccccc2)CC1 ?
2.5

Record lookup: for D(4) dopamine receptor (Homo sapiens), what Ki belongs to COc1cc2c(cc1O)CN(CCCCNC(=O)c1ccc(F)cc1)CC2 ?
95

Record lookup: for D(4) dopamine receptor (Homo sapiens), what Ki belongs to COc1ccccc1N1CCN(CCCNC(=O)NN(Cc2ccccc2)c2ccc(Br)cc2)CC1 ?
3.4

Record lookup: for D(4) dopamine receptor (Homo sapiens), what Ki belongs to N#Cc1ccc2cc(C(=O)NCCCCN3CCN(c4cccc(Cl)c4Cl)CC3)[nH]c2c1 ?
631

Record lookup: for D(4) dopamine receptor (Homo sapiens), what Ki belongs to O=C(CCCCCC(=O)OC1(c2ccc(Cl)cc2)CCN(CCCC(=O)c2ccc(F)cc2)CC1)OC1(c2ccc(Cl)cc2)CCN(CCCC(=O)c2ccc(F)cc2)CC1 ?
360

Record lookup: for D(4) dopamine receptor (Homo sapiens), what Ki belongs to COc1cc2ccccc2cc1OC(=O)CC1CCN(Cc2ccccc2)CC1 ?
6.31

Record lookup: for D(4) dopamine receptor (Homo sapiens), what Ki belongs to COc1ccccc1N1CCN(CCCCNC(=O)c2cc3ccc(C#N)cc3[nH]2)CC1 ?
39.8

Record lookup: for D(4) dopamine receptor (Homo sapiens), what Ki belongs to O=C(NCCCN1CCN(c2ccc(Br)cc2)CC1)NN(Cc1ccccc1)c1ccccc1 ?
14

Record lookup: for D(4) dopamine receptor (Homo sapiens), what Ki belongs to Clc1ccc(-c2cc(C3CCN(Cc4cccc(Cl)c4)CC3)[nH]n2)cc1 ?
60

Record lookup: for D(4) dopamine receptor (Homo sapiens), what Ki belongs to COc1ccc(-c2cccc3c2CC[C@H]2[C@H]3c3cc(O)c(Cl)cc3CCN2C)cc1 ?
10000

Record lookup: for D(4) dopamine receptor (Homo sapiens), what Ki belongs to COc1ccccc1N1CCN(CCC(O)CNC(=O)c2cc3ccccc3[nH]2)CC1 (stereo not given) ?
176

Record lookup: for D(4) dopamine receptor (Homo sapiens), what Ki belongs to COc1cc2ccccc2cc1C(=O)NC1CCN(Cc2ccccc2)C1 (stereo not given) ?
3.98

Record lookup: for D(4) dopamine receptor (Homo sapiens), what Ki belongs to COc1cc(CCNC[C@H](O)c2ccc(O)c3[nH]c(=O)ccc23)ccc1OCCCc1ccccc1 ?
3300

Record lookup: for D(4) dopamine receptor (Homo sapiens), what Ki belongs to O=c1ccc2c(N3CCN(CCCCOc4ccn5nccc5c4)CC3)ccc(O)c2o1 ?
270

Record lookup: for D(4) dopamine receptor (Homo sapiens), what Ki belongs to Cc1ccc(C2CCN(Cc3ccc4c(c3)NC(=O)CO4)CC2)cc1 ?
2.8

Record lookup: for D(4) dopamine receptor (Homo sapiens), what Ki belongs to O=C(CCCCCCCCCCCCCCCCC(=O)OC1(c2ccc(Cl)cc2)CCN(CCCC(=O)c2ccc(F)cc2)CC1)OC1(c2ccc(Cl)cc2)CCN(CCCC(=O)c2ccc(F)cc2)CC1 ?
570

Record lookup: for D(4) dopamine receptor (Homo sapiens), what Ki belongs to COc1cccc(C(=O)CCCN2CCN(c3ccccc3OC)CC2)c1 ?
1.7

Record lookup: for D(4) dopamine receptor (Homo sapiens), what Ki belongs to COc1ccccc1N1CCN(CNC(=O)c2cccc(C)c2)CC1 ?
6.7

Record lookup: for D(4) dopamine receptor (Homo sapiens), what Ki belongs to C[C@@H]1Cc2ccccc2N1C(=O)CN1CCN(Cc2cc(F)c(Cl)cc2F)CC1 ?
6

Record lookup: for D(4) dopamine receptor (Homo sapiens), what Ki belongs to COc1cc2ccccc2cc1C(=O)CCC1CCN(Cc2ccccc2)CC1 ?
31.6

Record lookup: for D(4) dopamine receptor (Homo sapiens), what Ki belongs to CCCN1CCCN(c2ccc(O)c3c2OCC(=O)N3)CC1 ?
210

Record lookup: for D(4) dopamine receptor (Homo sapiens), what Ki belongs to Clc1ccc(-c2cc(C3CCN(CCCc4ccccc4)CC3)[nH]n2)cc1 ?
110

Record lookup: for D(4) dopamine receptor (Homo sapiens), what Ki belongs to COc1cc(CN2CCN(c3ccccc3OC)CC2)ccc1OCCCc1cn(CCOCCOCCn2cc(CCCOc3ccc(CN4CCN(c5ccccc5OC)CC4)cc3OC)nn2)nn1 ?
12

Record lookup: for D(4) dopamine receptor (Homo sapiens), what Ki belongs to COc1ccc(Br)cc1C1=N[C@@H](CN2CCN(c3ccccc3)CC2)CO1 (stereo in doubt; 4c) ?
1600

Record lookup: for D(4) dopamine receptor (Homo sapiens), what Ki belongs to Cc1nnn(C2CCN(Cc3ccccc3)CC2)c1-c1ccccc1 ?
18

Record lookup: for D(4) dopamine receptor (Homo sapiens), what Ki belongs to COc1cc(Br)cc(C(=O)NCCN2CCc3ccccc3C2)c1OC ?
47.9

Record lookup: for D(4) dopamine receptor (Homo sapiens), what Ki belongs to Cc1ccc(C(=O)C2CCN(CC(=O)NC3CCCC3)CC2)cc1 ?
420

Record lookup: for D(4) dopamine receptor (Homo sapiens), what Ki belongs to COc1ccccc1N1CCN(CCCCCc2cn(-c3ccc(SC)cc3)nn2)CC1 ?
227

Record lookup: for D(4) dopamine receptor (Homo sapiens), what Ki belongs to COc1ccccc1N1CCN(CCCCN2CCc3c(cccc3-c3ccccc3)C2=O)CC1 ?
9.8

Record lookup: for D(4) dopamine receptor (Homo sapiens), what Ki belongs to O=C(NC1CCN(Cc2ccccn2)CC1)c1ccc2ccccc2c1 ?
299
